Data origin, for the record: PubChem BioAssay (NCI)

test system: MDA-MB-231 breast; experiment: NCI tumour cell line growth inhibition, 48 h
Recorded metric: TGI

[[record]]
compound = "N#Cc1c(O)cc(=O)n2c1[nH]c1ccccc12"
recorded_metric = "TGI"
endpoint_value = "> 100 µM"

[[record]]
compound = "O=C1NC(=O)/C(=C/c2ccc(S(=O)(=O)N/N=C\\C(O)C(O)C(O)C(O)CO)cc2)N1 (stereo not drawn)"
recorded_metric = "TGI"
endpoint_value = "> 100 µM"

[[record]]
compound = "CCOC(=O)/C=C/[C@H](O)[C@@H](O)/C=C/C(=O)OCC"
recorded_metric = "TGI"
endpoint_value = "> 100 µM"

[[record]]
compound = "NC(Cc1ccc(S(=O)(=O)O)cc1)C(=O)NC(Cc1ccc(S(=O)(=O)O)cc1)C(=O)NC(Cc1ccc(S(=O)(=O)O)cc1)C(=O)O (stereo not drawn)"
recorded_metric = "TGI"
endpoint_value = "> 100 µM"

[[record]]
compound = "Cc1cc(C(=O)NC(CCC(=O)O)C(=O)O)sc1CCC1CNc2nc(N)[nH]c(=O)c2C1 (stereo not drawn)"
recorded_metric = "TGI"
endpoint_value = "> 100 µM"

[[record]]
compound = "Cc1ccc(C2=C(c3ccc(C)cc3)C3(c4ccc(C)cc4)C4C(=O)c5ccccc5C(=O)C4C2(c2ccc(C)cc2)S3=O)cc1 (stereo not drawn)"
recorded_metric = "TGI"
endpoint_value = "> 100 µM"

[[record]]
compound = "CCN(CC)CCCNc1nc(=O)[nH]c(C)c1C(=O)Nc1ccc2c(c1)c1ccccc1n2CC"
recorded_metric = "TGI"
endpoint_value = "> 100 µM"

[[record]]
compound = "CC1(C)C(=O)/C=C\\C(=O)C(C)(C)C(=O)/C=C\\C(=O)C(C)(C)C(=O)/C=C\\C(=O)C(C)(C)C(=O)/C=C\\C1=O"
recorded_metric = "TGI"
endpoint_value = "> 100 µM"

[[record]]
compound = "Oc1ccccc1C1=NOC(c2ccc(C(F)(F)F)cc2)C1 (stereo not drawn)"
recorded_metric = "TGI"
endpoint_value = "> 50 µM"

[[record]]
compound = "CN(C)S(=O)(=O)n1cnc(CO)c1"
recorded_metric = "TGI"
endpoint_value = "> 100 µM"

[[record]]
compound = "COc1cc2ncnc(Nc3ccc4c(cnn4Cc4ccccc4)c3)c2cc1OC"
recorded_metric = "TGI"
endpoint_value = "> 25 µM"

[[record]]
compound = "O=C(O)CN1CCN(CC(=O)N2CCN(C(=O)OCc3ccccc3)CC2)CCN(CC(=O)O)CCN(CC(=O)N2CCN(C(=O)OCc3ccccc3)CC2)CC1"
recorded_metric = "TGI"
endpoint_value = "> 100 µM"

[[record]]
compound = "COC(=O)C1=C(C(=O)OC)SC(=C2S[C@@H]3[C@@H]4C[C@H]([C@@H]3S2)[C@H]2C(=O)OC(=O)[C@@H]42)S1"
recorded_metric = "TGI"
endpoint_value = "> 100 µM"

[[record]]
compound = "Cc1ccc(N2CCN(CCC(=O)O)CC2)cc1"
recorded_metric = "TGI"
endpoint_value = "> 100 µM"

[[record]]
compound = "N#Cc1c(O)c(N=Nc2ccc(Cl)cc2)c(=O)n2c1[nH]c1ccccc12"
recorded_metric = "TGI"
endpoint_value = "> 100 µM"

[[record]]
compound = "CN1CCN(c2nc(NCCCNc3ccnc4cc(Cl)ccc34)c3ccccc3n2)CC1"
recorded_metric = "TGI"
endpoint_value = "8.94 µM"

[[record]]
compound = "[O-][N+]1=NC(c2ccccc2)=C1c1ccccc1"
recorded_metric = "TGI"
endpoint_value = "> 50 µM"

[[record]]
compound = "CCCCN(CCCC)CCC(O)c1cc2c(Cl)cc(Cl)cc2c2cc(C(F)(F)F)ccc12 (stereo not drawn)"
recorded_metric = "TGI"
endpoint_value = "15.3 µM"

[[record]]
compound = "O=C1Nc2ccccc2/C1=C\\c1nc(C2CCN(S(=O)(=O)c3ccc(F)cc3)CC2)n2ccccc12"
recorded_metric = "TGI"
endpoint_value = "60.8 µM"

[[record]]
compound = "COc1ccc(/C=C2/NC(=S)N=C2Cl)cc1"
recorded_metric = "TGI"
endpoint_value = "> 100 µM"

[[record]]
compound = "OCCNCCCOc1ccc2ncnc(Nc3ccc(Oc4cccc(C(F)(F)F)c4)c(Cl)c3)c2c1"
recorded_metric = "TGI"
endpoint_value = "3.2 µM"

[[record]]
compound = "C/C=C/[C@H]1O[C@@H]2C(=C[C@H]1O)C(=O)O[C@H]2C"
recorded_metric = "TGI"
endpoint_value = "34.2 µM"

[[record]]
compound = "COc1ccc2c(c1)CCCN2S(=O)(=O)c1ccccc1[N+](=O)[O-]"
recorded_metric = "TGI"
endpoint_value = "> 100 µM"

[[record]]
compound = "COc1ccc(/C=C/C(=O)CC(=O)/C=C/c2ccc(OC)cc2)cc1"
recorded_metric = "TGI"
endpoint_value = "> 100 µM"

[[record]]
compound = "CC1=CC(C)C(C)N(CCNS(=O)(=O)c2ccc(C)cc2)c2ccccc21 (stereo not drawn)"
recorded_metric = "TGI"
endpoint_value = "24.2 µM"

[[record]]
compound = "CN(C)CCn1c(=O)c2ccc3c4c(nn3CCN(C)C)c3cc([N+](=O)[O-])ccc3n(c1=O)c24"
recorded_metric = "TGI"
endpoint_value = "0.491 µM"

[[record]]
compound = "COc1cccc2c1C(=O)c1c(O)c3c(c(O)c1C2=O)C[C@@](O)(C(=O)CO)CC3OC1CC(O)C(O)C(C)O1 (stereo partly drawn)"
recorded_metric = "TGI"
endpoint_value = "6 µM"

[[record]]
compound = "N=C(N)c1ccc(NCCOCCNc2ccc(C(=N)N)cc2)cc1"
recorded_metric = "TGI"
endpoint_value = "> 100 µM"

